# Tested on: HCC1937
# experimental details: relative cell viability, compound alone, vs DMSO (fraction of DMSO control); higher = less growth inhibition
# protocol conditions: 72 h
Where a name gives a salt, the structure may show the parent alone.
Output T for records whose relative cell viability is lower than 0.8, F for records at or above 0.8.

Reference set (4 entries):
Task: is_below(relative cell viability, 0.8) for N=C(N)NC(=N)NCCc1ccccc1 [Phenformin hydrochloride] ?
Output: T

Task: Strictly below 0.8: is that where relative cell viability of CC(C)CCC[C@@H](C)[C@H]1CC[C@H]2[C@@H]3CC=C4C[C@@H](O)CC[C@]4(C)[C@H]3CC[C@]12C sits?
Output: F

Task: # TODO verify relative cell viability < 0.8 strictly for this molecule: O=c1c(O[C@@H]2O[C@H](CO)[C@@H](O)[C@H](O)[C@H]2O)c(-c2ccc(O)cc2)oc2cc(O)cc(O)c12
Output: F

Task: Item CCC(=O)O[C@]1(C(=O)CCl)[C@@H](C)C[C@H]2[C@@H]3C[C@H](F)C4=CC(=O)C=C[C@]4(C)[C@@]3(F)[C@@H](O)C[C@@]21C [Halobetasol Propionate] : relative cell viability beneath 0.8, strictly?
Output: F

Others:
Task: Identify whether the molecule C[C@@H]1OCC2(CCN(c3cnc(Sc4ccnc(N)c4Cl)c(N)n3)CC2)[C@@H]1N records relative cell viability below 0.8.
Output: F

###

# System: HCC1937
# experimental details: relative cell viability, compound + RSL3, vs DMSO (fraction of DMSO control); higher = less growth inhibition
# protocol conditions: 72 h
Listed below: relative cell viability values for each entry.
Reply: number alone, nothing else.

Task: Answer with the recorded relative cell viability for the compound listed here: Cc1c(C(=O)NN2CCCCC2)nn(-c2ccc(Cl)cc2Cl)c1-c1ccc(Cl)cc1 [Rimonabant] + COC(=O)c1ccc([C@H]2c3[nH]c4ccccc4c3C[C@H](C(=O)OC)N2C(=O)CCl)cc1
Output: 0.649

***
Task: Return relative cell viability (reported value) for this compound: CC[C@H](C)C(=O)O[C@H]1C[C@H](O)C=C2C=C[C@H](C)[C@H](CC[C@@H](O)C[C@@H](O)CC(=O)O)[C@H]21 [Pravastatin sodium] + COC(=O)c1ccc([C@H]2c3[nH]c4ccccc4c3C[C@H](C(=O)OC)N2C(=O)CCl)cc1
Output: 0.77

###

# System: HCC1937
# experimental details: relative cell viability, compound + RSL3, vs DMSO (fraction of DMSO control); higher = less growth inhibition
# protocol conditions: 72 h
result type: relative cell viability
Just the number, please.

Example cases with answers are listed next.
Task: Report its relative cell viability with HCC1937 as the test system: CCNC1(C(N)=O)CCN(c2ncnc3c2nc(-c2ccccc2Cl)n3-c2ccc(Cl)cc2)CC1 [Otenabant] + COC(=O)c1ccc([C@H]2c3[nH]c4ccccc4c3C[C@H](C(=O)OC)N2C(=O)CCl)cc1
Output: 0.659

Task: Give the observed relative cell viability of CC(C)OC(=O)C(C(=O)OC(C)C)=C1SC=CS1 [Malotilate] + COC(=O)c1ccc([C@H]2c3[nH]c4ccccc4c3C[C@H](C(=O)OC)N2C(=O)CCl)cc1 for HCC1937.
Output: 0.337

Next:
Task: Report the value of relative cell viability obtained on HCC1937 for CC(C)OC(=O)C(C)(C)Oc1ccc(C(=O)c2ccc(Cl)cc2)cc1 [Fenofibrate] + COC(=O)c1ccc([C@H]2c3[nH]c4ccccc4c3C[C@H](C(=O)OC)N2C(=O)CCl)cc1 .
Output: 0.681

Task: With HCC1937 as the test system, provide measured relative cell viability for this compound: CC(C)=CCC(O)C1=CC(=O)c2c(O)ccc(O)c2C1=O (single isomer, unassigned; (+)) [(+)-Shikonin] + COC(=O)c1ccc([C@H]2c3[nH]c4ccccc4c3C[C@H](C(=O)OC)N2C(=O)CCl)cc1
Output: 0.0766

Task: Report value only: relative cell viability, HCC1937, COc1ccc(-c2c[nH]c3nccc(-c4ccsc4)c23)c(OC)c1 + COC(=O)c1ccc([C@H]2c3[nH]c4ccccc4c3C[C@H](C(=O)OC)N2C(=O)CCl)cc1
Output: 0.403

###

# Tested on: MDA-MB-231
# experimental details: relative cell viability, compound + RSL3, vs DMSO (fraction of DMSO control); higher = less growth inhibition
# protocol conditions: 72 h
Reported relative cell viability is given for each of the following compounds.

Study these solved cases before continuing.
Task: With MDA-MB-231 as the test system, provide measured relative cell viability for this compound: CCc1ccc(CCOc2ccc(CC3SC(=O)NC3=O)cc2)nc1 (configuration not stated) [Pioglitazone] + COC(=O)c1ccc([C@H]2c3[nH]c4ccccc4c3C[C@H](C(=O)OC)N2C(=O)CCl)cc1 [RSL3]
Output: 0.629

Task: Report its relative cell viability with MDA-MB-231 as the test system: CC(C)(C)c1ccc(-c2nc3ccccc3[nH]2)cc1 + COC(=O)c1ccc([C@H]2c3[nH]c4ccccc4c3C[C@H](C(=O)OC)N2C(=O)CCl)cc1 [RSL3]
Output: 0.399

Task: For MDA-MB-231, give the measured relative cell viability of the entry O=C(NN1CCCCC1)c1nn(-c2ccc(Cl)cc2Cl)c(-c2ccc(C#Cc3ccc(C(F)(F)F)cc3)s2)c1CNS(=O)(=O)N1CCCC1 + COC(=O)c1ccc([C@H]2c3[nH]c4ccccc4c3C[C@H](C(=O)OC)N2C(=O)CCl)cc1 [RSL3]
Output: 0.345

Continuing:
Task: Give the observed relative cell viability of Cc1c(C(=O)NN2CCCCC2)nn(-c2ccc(Cl)cc2Cl)c1-c1ccc(Cl)cc1 [Rimonabant] + COC(=O)c1ccc([C@H]2c3[nH]c4ccccc4c3C[C@H](C(=O)OC)N2C(=O)CCl)cc1 [RSL3] for MDA-MB-231.
Output: 0.216

Task: Report relative cell viability under test system MDA-MB-231 for CC1(C)CC[C@]2(C(=O)O[C@@H]3O[C@H](CO)[C@@H](O)[C@H](O)[C@H]3O)CC[C@]3(C)C(=CC[C@@H]4[C@@]5(C)CC[C@H](O[C@@H]6O[C@H](C(=O)O)[C@@H](O)[C@H](O)[C@H]6O)C(C)(C)[C@@H]5CC[C@]43C)[C@@H]2C1 [Chikusetsusaponin IVa] + COC(=O)c1ccc([C@H]2c3[nH]c4ccccc4c3C[C@H](C(=O)OC)N2C(=O)CCl)cc1 [RSL3] .
Output: 0.572

Task: Specify relative cell viability for CCCCCC=CC(=O)CCc1ccc(O)c(OC)c1 [6-Shogaol] + COC(=O)c1ccc([C@H]2c3[nH]c4ccccc4c3C[C@H](C(=O)OC)N2C(=O)CCl)cc1 [RSL3] , system MDA-MB-231.
Output: 0.64

Task: Check MDA-MB-231 data and give relative cell viability for CC(C)(Oc1ccc(Cl)cc1)C(=O)O [Clofibric acid] + COC(=O)c1ccc([C@H]2c3[nH]c4ccccc4c3C[C@H](C(=O)OC)N2C(=O)CCl)cc1 [RSL3] .
Output: 0.603

Task: Enter measured relative cell viability, system MDA-MB-231, for the compound shown: C[C@@H](Nc1nc(N[C@H](C)C(F)(F)F)nc(-c2cccc(Cl)n2)n1)C(F)(F)F [Vorasidenib] + COC(=O)c1ccc([C@H]2c3[nH]c4ccccc4c3C[C@H](C(=O)OC)N2C(=O)CCl)cc1 [RSL3]
Output: 0.595

Task: State relative cell viability (MDA-MB-231) of CC(c1cc2ccccc2s1)N(O)C(N)=O (configuration not stated) [Zileuton] + COC(=O)c1ccc([C@H]2c3[nH]c4ccccc4c3C[C@H](C(=O)OC)N2C(=O)CCl)cc1 [RSL3] .
Output: 0.633

Task: Quote relative cell viability with test system MDA-MB-231 for Cc1c(C(=O)Nc2ccc(CO)cc2)nnn1Cc1ccc(Cl)c(Cl)c1 + COC(=O)c1ccc([C@H]2c3[nH]c4ccccc4c3C[C@H](C(=O)OC)N2C(=O)CCl)cc1 [RSL3]
Output: 0.573

Task: Report measured relative cell viability on MDA-MB-231; entry: CC(C)=CCC(O)C1=CC(=O)c2c(O)ccc(O)c2C1=O (single isomer, unassigned; (+)) [(+)-Shikonin] + COC(=O)c1ccc([C@H]2c3[nH]c4ccccc4c3C[C@H](C(=O)OC)N2C(=O)CCl)cc1 [RSL3]
Output: 0.132

Task: Look up and report relative cell viability, with MDA-MB-231 as system, for CC[C@@H]1/C=C(\C)C[C@H](C)C[C@H](OC)[C@H]2O[C@@](O)(C(=O)C(=O)N3CCCC[C@H]3C(=O)O[C@H](/C(C)=C/[C@@H]3CC[C@@H](O)[C@H](OC)C3)[C@H](C)[C@@H](O)CC1=O)[C@H](C)C[C@@H]2OC [Ascomycin] + COC(=O)c1ccc([C@H]2c3[nH]c4ccccc4c3C[C@H](C(=O)OC)N2C(=O)CCl)cc1 [RSL3]
Output: 0.236

Task: Please respond with reported relative cell viability (system MDA-MB-231) for CCCCCCS(=O)(=O)NC(=O)c1ccc(CSCc2ccc(-c3ccccc3)cc2)cc1 + COC(=O)c1ccc([C@H]2c3[nH]c4ccccc4c3C[C@H](C(=O)OC)N2C(=O)CCl)cc1 [RSL3] .
Output: 0.676

Task: Give the observed relative cell viability of CN(C)C(=O)Nc1cccc(-c2ccc(N(C)C)cc2)c1 [Atglistatin] + COC(=O)c1ccc([C@H]2c3[nH]c4ccccc4c3C[C@H](C(=O)OC)N2C(=O)CCl)cc1 [RSL3] for MDA-MB-231.
Output: 0.562

Task: Output reported relative cell viability of the compound CC(=O)Oc1cc(C(F)(F)F)ccc1C(=O)O [Triflusal] + COC(=O)c1ccc([C@H]2c3[nH]c4ccccc4c3C[C@H](C(=O)OC)N2C(=O)CCl)cc1 [RSL3] on MDA-MB-231.
Output: 0.492

Task: Specify relative cell viability for O=C(NC1CCN(CCCCC2(C(=O)NCC(F)(F)F)c3ccccc3-c3ccccc32)CC1)c1ccccc1-c1ccc(C(F)(F)F)cc1 [Lomitapide] + COC(=O)c1ccc([C@H]2c3[nH]c4ccccc4c3C[C@H](C(=O)OC)N2C(=O)CCl)cc1 [RSL3] , system MDA-MB-231.
Output: 0.391

Task: # assay system MDA-MB-231: give relative cell viability of CC[C@H]1[C@@H](O)[C@@H]2[C@H](CC[C@]3(C)[C@@H]([C@H](C)CCC(=O)O)CC[C@@H]23)[C@@]2(C)CC[C@@H](O)C[C@@H]12 [Obeticholic Acid] + COC(=O)c1ccc([C@H]2c3[nH]c4ccccc4c3C[C@H](C(=O)OC)N2C(=O)CCl)cc1 [RSL3]
Output: 0.543
